# Assay Notes: yeast display, Sf9 membrane polyspecificity reagent, FACS + sequencing; frameworks hold sequencing errors
Readout: polyreactivity (PSR sort gate)

QVQLVESGGGVVQAGGSLRLSCAASGSIFPYYVMGWYRQAPGKERELVAVISQSGGSTYYADSVKGRFTISRDNAKNTVYLQMNSLKPEDTAVYYCAAESAYDAYDYWGQGTQVTVSS | high polyreactivity
QVQLVESGGGLVQAGGRHRLTCAASGRTVGRYAMGWYRQAPGKEREFVAAISNRVGRTYYADSVKGRFTISRDNAKNTVYLQMNSLKPEDTAVYYCAADTAHVNVNYWGQGTQVTVSS | high polyreactivity

----------
# Assay Notes: yeast display, Sf9 membrane polyspecificity reagent, FACS + sequencing; frameworks hold sequencing errors
Readout: polyreactivity (PSR sort gate)

Here are 5 sequences together with their reported answers.
QVQLVESGGGLVQAGGSLRLSCAASGFTFRYNAMGWYRQAPGKEREFVAAITVTGGSTYYADSVKGRFTISRDNAKNTVYLQMNCLKPEDTAVYYCNAYRYTSSKFGYWGQGTQVTVSS | low polyreactivity
QVQLVESGGGLVQAGGSLRLSCAASGSTFWVYAMGWYRPAPGKERELVAAIDYSGGSTYYADSVKGRFTISRDNAKNTVYLQMNSLKPEDTAVYYGAAGEGQYWLWDGEGEYDYWGQGTQVTVSS | low polyreactivity
QVQLVESGGGLVQAGGSLRLSCAASGFVWNAMGWYRQAPGKERELVAAINWRGGSTNYADSVKGRFTISRDNAKNTVYLQMNSLKPEDTAVYYCAAYFFHYHFYQAAYDYWGQGTQVTVSS | low polyreactivity
QFQLVESGGGLVKAGGSLRLSSAASGGTFGYYTMGWYRQAPGKERELVAAISSGGGTDYADSVKGRFTISRDNAKNTVYFQMTSLKPEDTALYYCATVSDYPWRYDYWVQGTQVTVSS | low polyreactivity
QVQLVESVGGLVQAGGSLRLSCAASGRTFHYYVMGWYRQEPGKEGELVAAISRSGGNTYYADSVKGRFTISRDNAQNTVYLQMNSLKPEDTADYYCAAALSAYVKWDYYYWGQGTQVTVSS | high polyreactivity

Q: Please give the measured polyreactivity (PSR sort gate) for this sequence: QVQLVESGGGLVQAGGSLRLSCAPSGRIFHQYAMGFYRKSPGKERELVAAITWSGGSTHYADSVKGRYTISRDNAKNTVYLQLNSLKPEDTAVYYCAARKSGGLLDYWGQGTQVTVSS
A: low polyreactivity

Q: Please give the measured polyreactivity (PSR sort gate) for this sequence: QVQLVESGGGLVQAGGSLRLSCAASGAILRRYAMGWYRQAPGKERELVAAISYSGGNTYYADSVKGRFTISRDNAKNTVYLQMNSLKPEDTAVYYCAARYYGTYRGFYYWGQGTQVTVSS
A: high polyreactivity

Q: Please give the measured polyreactivity (PSR sort gate) for this sequence: QVQLVESGGGLVQAGGSLRLSCAASGSTIIYNTMGWYRQAPGKERELVARITWSGGSTSYADSVKGRFTISRDNAKNTVYLQMNSLKPEDTAVYYCNRRVQARRYRYDYWGQGTQVTVSS
A: high polyreactivity

Q: Please give the measured polyreactivity (PSR sort gate) for this sequence: QVQLVESGGVLVQAGGSLRLSCAASGRIFPGYVMGWYRQAHGKERELVAAITRGGSTYYADSVKGRFTISRDNAKNTVYLQMNSLKPEDTAVYYCAAKHSHIHYNYWGQGTQVTVSS
A: low polyreactivity

Q: Please give the measured polyreactivity (PSR sort gate) for this sequence: QVQLVESGGGLVQAGGSLRLSCAASGRIFPSYAMGWYRPAPGKERELVAAITRGSTTYYADSVKGRFTISRDNAKNTVYLQMNSLKPEDTAVYYCAAEENLAYYFKYYYWGQGTQVTVSS
A: low polyreactivity

Q: Please give the measured polyreactivity (PSR sort gate) for this sequence: QVQLVESGGGLVQAGGSLRLSCAASGNIFAYYALGWYRQAPGKEREFVAAIRSSGVSTYYADSVKGRFTISRDNAKNTVYLQMNSLKPEDTAVYYCAADSITGGWLIVSPPYNYTYDYWGQGTQVTVSS
A: low polyreactivity
